Measurement protocol: method code SF-AS, from DOI: 10.1002/qua.560100722
Measurement setup: pH 8.8
Endpoint label: logD
One number for each entry.

What value of logD has been recorded for this entry: `COc1cccc2c1C(=O)c1c(O)c3c(c(O)c1C2=O)C[C@@](O)(C(C)=NNC(=O)c1ccccc1)C[C@@H]3O[C@H]1C[C@H](N)[C@H](O)[C@H](C)O1`
0.76

---

Measurement protocol: method code SF-EPR, from DOI: 10.1007/bf01870789, PMID: 2549250
Measurement setup: pH 12.0
Endpoint label: logD
Answers are plain numbers.

Return reported logD values for all items listed beneath this line.
1. CNC1CC(C)(C)N(O)C(C)(C)C1
2. CC1(C)CC(N)CC(C)(C)N1O
3. CN(CCO)C1CC(C)(C)N(O)C(C)(C)C1

0.84
0.56
0.53

---

Endpoint label: logP

What value of logP has been recorded for this entry: `Nc1cc(Cl)c(S(N)(=O)=O)cc1S(N)(=O)=O`
-0.56

---

Measurement protocol: method code SF-RC, from DOI: 10.1021/es60172a005, PMID: 22280000
Endpoint label: logP
Give bare numbers.

What value of logP has been recorded for this entry: `c1ccc2nc(-c3ccc4ccccc4n3)ccc2c1`
4.31

---

Measurement protocol: method code SF, from DOI: 10.1016/s0968-0896(00)00025-0, PMID: 10882003
Endpoint label: logP
Give bare numbers.

# annotated cases, reported logP shown
Cc1cccc(=O)[nH]1; -0.04
CCOC(=O)c1cc(C#N)c(=O)[nH]c1C(F)(F)F; 2.08

What value of logP has been recorded for this entry: `O=c1cccc[nH]1`
-0.56

---

Endpoint label: logP
Numbers only.

What value of logP has been recorded for this entry: CCCN(C(C)C)C1COc2cccc(C(=O)NC(C)C)c2C1 (stereo unspecified)
3.27

---

Measurement protocol: method code SF-AS, from DOI: 10.1016/s0022-3565(25)24763-2, PMID: 2019981
Measurement setup: pH 7.4
Endpoint label: logD
One number for each entry.

What value of logD has been recorded for this entry: `CCc1occc(=O)c1O`
0.6

---

Measurement protocol: method code G-GLC, from DOI: 10.1021/es00169a004
Provide the reported logP of each item.
Give bare numbers.

Clc1cc(Cl)c(-c2c(Cl)c(Cl)cc(Cl)c2Cl)c(Cl)c1Cl; 7.21

Return reported logP values for all items listed beneath this line.
1. Clc1cc(Cl)c(-c2c(Cl)cccc2Cl)c(Cl)c1
2. Clc1cc(Cl)c(Cl)c(-c2ccccc2)c1Cl

1: 5.37; 2: 5.94

---

Measurement protocol: method code SF-GLC, from DOI: 10.1021/je970069v
Endpoint label: logP
One number for each entry.

# annotated cases, reported logP shown
Cc1c(Cl)c(Cl)c(C(C)C)c(Cl)c1Cl; 6.8
Cc1c(Cl)cc(C(C)C)c(Cl)c1Cl; 6.2

What value of logP has been recorded for this entry: `Cc1cc(Cl)c(C(C)C)cc1Cl`
5.6

---

Measurement protocol: method code SF-RC, from DOI: 10.1038/sj.bjc.6601862, PMID: 15150578
Endpoint label: logP
Numbers only.

What value of logP has been recorded for this entry: `O=C(Cn1ccnc1[N+](=O)[O-])NCCF`
-0.8

---

Measurement protocol: method code SF-AS, from DOI: 10.1021/jm00128a017, PMID: 2754702
Measurement setup: pH 7.4
Endpoint label: logD

What value of logD has been recorded for this entry: Nc1nc2c(ncn2C2CC(O)C(CO)O2)c(=O)[nH]1 (stereo unspecified)
-1.3

---

Measurement protocol: method code SF, from Korenman, I.; Polumestnaya, I. (1982). Principles of interfacial distribution of certain substituted naphthalenes. Zh. Prikl. Khim., 55(2)364-367.
Endpoint label: logP
Numbers only.

What value of logP has been recorded for this entry: `O=S(=O)(O)c1cc(O)c2ccccc2c1`
-0.18

---

Endpoint label: logP
Give bare numbers.

What value of logP has been recorded for this entry: `N#Cc1ccc(OCC2CCN(C/C=C/I)CC2)cc1`
3.36

---

Measurement setup: pH 3.0
Endpoint label: logD

What value of logD has been recorded for this entry: `N#CC(C#N)=NNc1ccc(C(=O)CCl)cc1`
2.15

---

Measurement protocol: method code SF-HPLC, from DOI: 10.1080/01483919108049396
Measurement setup: pH 7.0
Provide the reported logD of each item.
Answers are plain numbers.

# annotated cases, reported logD shown
Nc1ncnc2c1ncn2C1CCC(CO)O1 (stereo not drawn); -0.29
O=c1[nH]cnc2c1ncn2[C@H]1C[C@H](O)[C@@H](CO)O1; -1.71

Now consider a different compound.
What value of logD has been recorded for this entry: `O=C(Nc1ccn([C@H]2C[C@H](O)[C@@H](CO)O2)c(=O)n1)c1ccccc1`
0.67

---

Measurement protocol: method code SF-AS, from DOI: 10.1016/0006-2952(93)90433-w, PMID: 8494536
Measurement setup: pH 7.4
Provide the reported logD of each item.
Answers are plain numbers.

CS(=O)(=O)c1ccccc1; 0.55
NC(=O)c1cccc2ccccc12; 1.88

Now consider a different molecule.
What value of logD has been recorded for this entry: `NS(=O)(=O)c1cccc2ccccc12`
1.55

---

Measurement setup: pH 7.5
Endpoint label: logD
One number for each entry.

What value of logD has been recorded for this entry: `CCN1CCC[C@H]1CNC(=O)c1c(O)c(I)cc(OC)c1OC`
2.5

---

Provide the reported logD of each item.
Measurement protocol: method code SF-HPLC, from DOI: 10.1016/0378-5173(89)90313-x
Measurement setup: pH 7.4

CN1C=CCC(C(=O)NCC(OC(=O)CCCc2ccc(N(CCCl)CCCl)cc2)c2ccccc2)=C1 (configuration not stated); 2.29

Now consider a different compound.
What value of logD has been recorded for this entry: `CN1C=CCC(C(=O)NCCCOC(=O)CCCc2ccc(N(CCCl)CCCl)cc2)=C1`
2.75

---

Measurement protocol: method code SF, from DOI: 10.1016/0378-5173(87)90234-1
Measurement setup: pH 4.0
Endpoint label: logD
One number for each entry.

What value of logD has been recorded for this entry: `O=C(OC1CCCCC1)n1cc(F)c(=O)[nH]c1=O`
1.42

---

Endpoint label: logP
Numbers only.

# annotated cases, reported logP shown
CC(=O)Nc1ccccc1Cl; 1.35
OCc1ccc(F)cc1; 1.36
OCc1ccncc1; -0.04

What value of logP has been recorded for this entry: `CNc1ccccc1`
1.69

---

Endpoint label: logP
Give bare numbers.

# annotated cases, reported logP shown
c1ccc(N(c2ccccc2)c2ccccc2)cc1; 5.22
O=[N+]([O-])c1ccc(Oc2ccccc2)cc1; 3.79

What value of logP has been recorded for this entry: `CC(=O)c1ccc([N+](=O)[O-])cc1`
1.61

---

Provide the reported logP of each item.

O=C(O)c1ccc2ccccc2c1; 3.1

Now consider a different molecule.
What value of logP has been recorded for this entry: COC(C)(C(=O)O)c1ccc2ccccc2c1 (configuration not stated)
3.18

---

Provide the reported logP of each item.
Answers are plain numbers.

# annotated cases, reported logP shown
Cc1cccc2c1Sc1ccccc1C2NC(=O)CCN(C)C (stereo not drawn); 3.06
CCN(CC)CCC(=O)NC1c2ccccc2Sc2c(C)cccc21 (stereo not drawn); 4.1

Now consider a different compound.
What value of logP has been recorded for this entry: CCN(CC)CCC(=O)NC1c2ccccc2Oc2c(C)cccc21 (stereo not drawn)
3.55

---

Measurement protocol: method code SF-AS, from DOI: 10.1016/s0021-9673(03)00617-4, PMID: 12830921
Endpoint label: logP

What value of logP has been recorded for this entry: CCC12CCCN3CCc4c(n(c5ccccc45)C(O)(C(=O)OC)C1)C32 (stereo unspecified)
2.96

---

Provide the reported logP of each item.
Give bare numbers.

O=C(C(=O)c1ccc(Cl)cc1)c1ccccc1; 2.6

Now consider a different molecule.
What value of logP has been recorded for this entry: `C=Cc1ccc(C=C)cc1`
3.2

---

Measurement protocol: method code SF-AS, from DOI: 10.1002/etc.5620181211
Endpoint label: logP
One number for each entry.

What value of logP has been recorded for this entry: `Cc1cccnc1N`
0.01

---

Measurement protocol: method code SF-HPLC, from DOI: 10.1021/jm030477w, PMID: 15084119
Measurement setup: pH 7.4
Endpoint label: logD
One number for each entry.

What value of logD has been recorded for this entry: `Nc1ccc(-c2cn3cc(I)ccc3n2)cc1`
3.58

---

Provide the reported logD of each item.
Measurement protocol: method code SF-HPLC, from DOI: 10.1016/0045-6535(86)90532-1
Measurement setup: pH 6.5
Give bare numbers.

# annotated cases, reported logD shown
CN(C)C(=S)N(C)C; 0.49
CCNC(=S)NCC; 0.57
CCNC(N)=S; -0.21

What value of logD has been recorded for this entry: `CN(C)C(N)=S`
-0.43
